target: HLA-A*03:01; assay: IEDB peptide-MHC binding, purified MHC/competitive/fluorescence; bounds were set here for any values at or beyond the usual limits of such assays; conditions: source organism: Sudan ebolavirus
REPORTED_METRIC: IC50 (nM)

   residue_codes  numeric_result
0      ILGSLGLRK             872

---

target: HLA-C*06:02; test: IEDB peptide-MHC binding, purified MHC/direct/fluorescence; filed as Kd, often an IC50 or EC50 that approximates it; bounds were set here for any values at or beyond the usual limits of such assays; settings: source organism: Burkholderia vietnamiensis G4
REPORTED_METRIC: Kd

   residue_codes   result
0      WMRWGGWPF  ≥ 20 µM

---

molecular target: HLA-B*15:17; test: IEDB peptide-MHC binding, purified MHC/competitive/fluorescence; filed as Kd, often an IC50 or EC50 that approximates it; bounds were set here for any values at or beyond the usual limits of such assays; settings: source organism: Bacillus anthracis str. 'Ames Ancestor'
pKd: −log10 of the molar value.
REPORTED_METRIC: pKd

>>> print(df.to_string())
   residue_codes  reported_metric  result
0      MTQNISNDK              pKd  ≤ 4.70

---

target: HLA-A*02:17; assay: IEDB peptide-MHC binding, purified MHC/competitive/radioactivity; filed as Kd, often an IC50 or EC50 that approximates it; bounds were set here for any values at or beyond the usual limits of such assays; details: source organism: Dengue virus 1 Singapore/S275/1990
Item-by-item account of Kd
REPORTED_METRIC: Kd (nM)

>>> df
   residue_codes  readout_unit  numeric_result
0      LTAAVLMLV            nM             561
1     KTMAMVLSIV            nM            2860
2     KLVMAFIAFL            nM            22.4

---

molecular target: HLA-B*40:01; experiment: IEDB peptide-MHC binding, purified MHC/competitive/radioactivity; filed as Kd, often an IC50 or EC50 that approximates it; bounds were set here for any values at or beyond the usual limits of such assays; conditions: source organism: Dengue virus 3 Sri Lanka/1266/2000
pKd: −log10 of the molar value.
REPORTED_METRIC: pKd

In [3]: df
Out[3]:
   residue_codes       target  reported_metric  numeric_result
0      LEKKITQWL  HLA-B*40:01              pKd            6.72

---

Item-by-item account of Kd
biological target: HLA-C*12:03; test: IEDB peptide-MHC binding, purified MHC/direct/fluorescence; filed as Kd, often an IC50 or EC50 that approximates it; bounds were set here for any values at or beyond the usual limits of such assays; conditions: source organism: Giardia lamblia ATCC 50803
REPORTED_METRIC: Kd (nM)

In [3]: df
Out[3]:
   residue_codes  numeric_result
0      YTFFFTQYF              44
1      IASPILFPF             594

---

target: HLA-B*15:17; assay: IEDB peptide-MHC binding, purified MHC/competitive/fluorescence; filed as Kd, often an IC50 or EC50 that approximates it; bounds were set here for any values at or beyond the usual limits of such assays; details: source organism: Rickettsia typhi str. Wilmington
pKd: −log10 of the molar value.
REPORTED_METRIC: pKd

In [3]: df
Out[3]:
   residue_codes  reported_metric  result
0      QLEVRSTEV              pKd  ≤ 4.70

// data source = the Immune Epitope Database (IEDB)
